Biological target: hP2X2/3H (Homo sapiens, UniProt P56373+Q9UBL9)
Construct: expressed in transfected cells; host or cells: e.g. HEK293 or 1321N1
Sequence (Q9UBL9 1-471): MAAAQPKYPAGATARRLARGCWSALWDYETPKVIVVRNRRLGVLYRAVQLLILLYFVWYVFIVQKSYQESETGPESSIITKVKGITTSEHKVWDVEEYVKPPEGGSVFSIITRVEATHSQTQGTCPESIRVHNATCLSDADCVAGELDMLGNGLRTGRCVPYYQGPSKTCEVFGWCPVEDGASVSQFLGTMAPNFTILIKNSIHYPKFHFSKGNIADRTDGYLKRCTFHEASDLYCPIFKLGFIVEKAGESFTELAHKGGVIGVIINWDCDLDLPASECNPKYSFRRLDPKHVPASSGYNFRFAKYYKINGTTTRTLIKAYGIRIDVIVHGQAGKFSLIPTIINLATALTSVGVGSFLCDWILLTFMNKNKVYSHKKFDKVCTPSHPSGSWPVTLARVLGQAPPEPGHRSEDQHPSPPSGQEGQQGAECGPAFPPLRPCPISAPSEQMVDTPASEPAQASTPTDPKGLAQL
Sequence (P56373 1-397): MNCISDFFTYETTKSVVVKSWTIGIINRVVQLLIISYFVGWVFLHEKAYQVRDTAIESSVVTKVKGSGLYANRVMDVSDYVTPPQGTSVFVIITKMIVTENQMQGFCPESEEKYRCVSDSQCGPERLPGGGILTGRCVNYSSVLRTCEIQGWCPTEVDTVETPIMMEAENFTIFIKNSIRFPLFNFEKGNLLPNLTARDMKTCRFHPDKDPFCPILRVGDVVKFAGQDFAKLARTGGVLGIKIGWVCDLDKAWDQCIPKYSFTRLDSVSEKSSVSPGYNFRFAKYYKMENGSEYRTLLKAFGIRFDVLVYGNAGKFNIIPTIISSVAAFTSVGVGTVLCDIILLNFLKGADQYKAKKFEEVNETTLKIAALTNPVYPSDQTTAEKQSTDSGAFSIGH
Test: Calcium uptake assay (P2X antagonist assay), P2X2/3 heteromer
Assay type: cell-based
Conditions: Ca influx (calcium uptake assay), hP2X2/3H; read-out: IC50 hP2X2/3H
Description: The human P2X2/3 chimera clone is created as described by Neelands et al, and then cloned into an expression vector as above. […] Functional activity of compounds at the P2X receptor is determined by measuring their ability to inhibit agonist-induced calcium influx. […] At the start of each screening day, the agonist EC50 is determined. Compound % inhibition or IC50s are subsequently determined using a predetermined agonist concentration (EC50-90 depending on cell line) as a stimulus. […]
ENDPOINT LABEL: IC50

[[record]]
compound = "Cc1ccc(-c2cc(C(=O)N[C@H](C)c3ccc(C)nc3)cc(C(O)c3nccs3)c2)nc1 (stereo partly shown) [Compound 291]"
reported_measurement = "< 100 nM"

[[record]]
compound = "Cc1ccc(-c2cc(C(=O)N[C@H](C)c3ccc(C)nc3)cc(C(O)CO)c2)cc1 (stereo partly shown) [Compound 289]"
reported_measurement = "< 100 nM"

[[record]]
compound = "Cc1ccc(-c2cc(C(=O)N[C@H](C)c3cnc(C)nc3)cc(C(O)c3nccs3)c2)c(C#N)c1 (stereo partly shown) [Compound 293]"
reported_measurement = "< 100 nM"

[[record]]
compound = "COc1ccc([C@@H](CCO)NC(=O)c2cc(-c3ccc(C)cc3)cc(S(C)(=O)=O)c2)cn1 [Compound 222]"
reported_measurement = "< 100 nM"

[[record]]
compound = "Cc1ccc(-c2cc(C(=O)NCc3ccc(C)nc3)cc(C(O)CN(C)CCO)c2)cc1 (stereo not shown) [Compound 368]"
reported_measurement = "501 to 1000 nM"

[[record]]
compound = "Cc1ccc(-c2cc(Oc3nccs3)cc(C(=O)NCc3cnc(C)nc3)c2)c(C#N)c1 [Compound 261]"
reported_measurement = "100 to 500 nM"

[[record]]
compound = "Cc1ncc([C@@H](C)NC(=O)c2cc(C(=O)N3CCCC3)cc(-c3ccc(Br)cc3)c2)cn1 [Compound 216]"
reported_measurement = "< 100 nM"

[[record]]
compound = "Cc1ccc(-c2cc(C(=O)NCc3ccc(C)nc3)cc(C(F)(F)F)c2)nc1 [Compound 202]"
reported_measurement = "> 1000 nM"

[[record]]
compound = "Cc1ccc(-c2cc(C(=O)NC(c3ccc(C)nc3)C(F)(F)F)cc(S(C)(=O)=O)c2)cc1 (stereo not shown) [Compound 213]"
reported_measurement = "> 1000 nM"

[[record]]
compound = "Cc1ccc(-c2cc(CO)cc(C(=O)N[C@H](C)c3ccc(C)nc3)c2)cc1 [Compound 320]"
reported_measurement = "100 to 500 nM"

[[record]]
compound = "Cc1ccc(-c2cc(C(=O)NCc3ccc(C)nc3)cc(C(O)c3ccccn3)c2)cc1 (stereo not shown) [Compound 240]"
reported_measurement = "< 100 nM"

[[record]]
compound = "Cc1ccc(-c2cc(C(=O)N[C@H](C)c3ccc(C)nc3)cc(C(C)O)c2)nc1 (stereo partly shown) [Compound 331]"
reported_measurement = "< 100 nM"

[[record]]
compound = "Cc1ccc(-c2cc(Oc3ncccn3)cc(C(=O)NCc3ccc(C)nc3)c2)cc1 [Compound 233]"
reported_measurement = "100 to 500 nM"

